system: MDA-MB-468; test: normalised response (% of control), CellTox Green; higher = less cell death (100 = DMSO, 0 = benzethonium chloride kill control); conditions: incubation time: 72 h
reported-endpoint: normalised response (%)
A number alone suffices; assume %.

Record excerpt, results attached:
Cc1nc(Nc2ncc(C(=O)Nc3c(C)cccc3Cl)s2)cc(N2CCN(CCO)CC2)n1 [Dasatinib] (100 nM) | 101
CC(C)N(CCCNC(=O)Nc1ccc(C(C)(C)C)cc1)C[C@H]1O[C@@H](n2cc(Br)c3c(N)ncnc32)[C@H](O)[C@@H]1O [SGC0946] (10000 nM) | 115
CNC(=O)c1cc(Oc2ccc(NC(=O)Nc3ccc(Cl)c(C(F)(F)F)c3)cc2)ccn1 [Sorafenib] (100 nM) | 118
CCN(CC)CCNC(=O)c1c(C)[nH]c(/C=C2\C(=O)Nc3ccc(F)cc32)c1C [Sunitinib] (100 nM) | 102
Nc1cccc2c1CN(C1CCC(=O)NC1=O)C2=O (configuration not stated) [Lenalidomide] (10000 nM) | 138

Lookup result for CNC(=O)c1cc(Oc2ccc(NC(=O)Nc3ccc(Cl)c(C(F)(F)F)c3)cc2)ccn1 [Sorafenib] (1000 nM) ; measured normalised response: 70.1

Lookup result for COc1cc(CCc2cc(NC(=O)c3ccc(N4CC(C)NC(C)C4)cc3)n[nH]2)cc(OC)c1 (configuration not stated) [AZD4547] (10 nM) ; measured normalised response: 158
